- system: VLA-4 (α4β1 integrin) binding to immobilized VCAM-1 (Homo sapiens, UniProt P05556+P13612)
- Construct: followed by 10 μl of Ramos cell-derived VLA-4; endogenous in cells; host or cells: Ramos cells (VLA-4 prepared from them)
- Sequence (P13612 34-1032): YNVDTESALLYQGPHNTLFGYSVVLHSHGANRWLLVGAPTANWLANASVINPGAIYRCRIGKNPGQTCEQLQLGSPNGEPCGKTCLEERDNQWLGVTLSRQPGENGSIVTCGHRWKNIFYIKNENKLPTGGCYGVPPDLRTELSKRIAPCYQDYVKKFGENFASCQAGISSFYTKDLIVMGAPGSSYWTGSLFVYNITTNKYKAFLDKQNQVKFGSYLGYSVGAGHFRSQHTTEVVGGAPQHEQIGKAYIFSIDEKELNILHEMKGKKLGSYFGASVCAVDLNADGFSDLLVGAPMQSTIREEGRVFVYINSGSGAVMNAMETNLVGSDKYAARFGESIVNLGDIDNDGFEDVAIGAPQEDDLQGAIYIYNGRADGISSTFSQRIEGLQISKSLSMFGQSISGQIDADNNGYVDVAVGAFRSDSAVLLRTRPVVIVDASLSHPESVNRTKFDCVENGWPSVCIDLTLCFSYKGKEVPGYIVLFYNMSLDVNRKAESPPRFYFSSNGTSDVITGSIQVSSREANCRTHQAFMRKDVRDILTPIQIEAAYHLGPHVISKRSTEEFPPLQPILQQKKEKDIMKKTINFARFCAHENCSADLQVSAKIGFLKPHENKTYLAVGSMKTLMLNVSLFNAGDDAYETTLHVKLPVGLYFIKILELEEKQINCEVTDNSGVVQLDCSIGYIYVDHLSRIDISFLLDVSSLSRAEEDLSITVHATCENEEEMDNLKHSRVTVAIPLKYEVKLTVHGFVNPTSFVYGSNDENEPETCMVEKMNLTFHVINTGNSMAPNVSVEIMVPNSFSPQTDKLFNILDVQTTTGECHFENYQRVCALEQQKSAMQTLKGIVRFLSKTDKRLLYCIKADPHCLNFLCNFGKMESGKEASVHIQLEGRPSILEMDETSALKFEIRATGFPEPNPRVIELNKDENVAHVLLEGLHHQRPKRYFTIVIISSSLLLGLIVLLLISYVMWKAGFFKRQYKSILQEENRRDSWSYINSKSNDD
- Sequence (P05556 21-798): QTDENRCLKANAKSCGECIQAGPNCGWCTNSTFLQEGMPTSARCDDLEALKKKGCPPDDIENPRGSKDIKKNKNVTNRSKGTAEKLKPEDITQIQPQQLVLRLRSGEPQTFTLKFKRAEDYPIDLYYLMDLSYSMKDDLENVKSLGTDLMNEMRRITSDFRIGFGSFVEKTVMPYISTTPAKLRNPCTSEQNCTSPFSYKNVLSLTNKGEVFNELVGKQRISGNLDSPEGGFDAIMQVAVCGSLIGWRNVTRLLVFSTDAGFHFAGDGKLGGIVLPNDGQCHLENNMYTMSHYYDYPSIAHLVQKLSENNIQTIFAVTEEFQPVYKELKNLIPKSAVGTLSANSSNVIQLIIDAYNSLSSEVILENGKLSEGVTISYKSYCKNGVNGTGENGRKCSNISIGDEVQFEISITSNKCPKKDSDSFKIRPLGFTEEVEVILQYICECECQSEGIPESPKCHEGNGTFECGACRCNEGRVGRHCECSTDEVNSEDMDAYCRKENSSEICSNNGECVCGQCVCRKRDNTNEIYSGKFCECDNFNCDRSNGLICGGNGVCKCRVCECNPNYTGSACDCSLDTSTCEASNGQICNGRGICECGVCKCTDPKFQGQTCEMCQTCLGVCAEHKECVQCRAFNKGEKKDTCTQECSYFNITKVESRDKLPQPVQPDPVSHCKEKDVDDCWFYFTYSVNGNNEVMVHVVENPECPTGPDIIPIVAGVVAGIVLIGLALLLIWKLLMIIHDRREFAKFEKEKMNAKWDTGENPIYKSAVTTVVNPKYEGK
- run_description: VLA-4/VCAM-1 Screening Assay (solid-phase dual antibody ELISA)
- condition_details: Ramos cell-derived VLA-4, recombinant human VCAM-1 coated plates
Examples of molecules with documented IC50 follow.
quantity_measured: IC50 (nM)

>>> observed_value("CCc1cccc(C)c1C(=S)N[C@@H](Cc1ccc(NC(=O)c2c(Cl)cccc2Cl)cc1)C(=O)O")
6
>>> observed_value("CNC(=O)NCCC1(C(=S)N[C@@H](Cc2ccc(NC(=O)c3c(Cl)cccc3Cl)cc2)C(=O)O)CCCC1")
5.6
>>> observed_value("Cc1cccc(Cl)c1C(=S)N[C@@H](Cc1ccc(NC(=O)c2c(Cl)cccc2Cl)cc1)C(=O)O")
0.47
>>> observed_value("CC(=O)NCCC1(C(=S)N[C@@H](Cc2ccc(NC(=O)c3c(Cl)cccc3Cl)cc2)C(=O)O)CCCC1")
1.5
>>> observed_value("COCCC1(C(=S)N[C@@H](Cc2ccc(NC(=O)c3c(Cl)cccc3Cl)cc2)C(=O)O)CCCC1")
4
